FYI, the data here is from paper PMC6937593.

# system.name: LOX (Sus scrofa)
# Construct: LOX enzyme was extracted from pig skin by the method of Shackleton and Hulmes; from tissue; host or cells: pig skin
# Sequence (P45845 whole entry): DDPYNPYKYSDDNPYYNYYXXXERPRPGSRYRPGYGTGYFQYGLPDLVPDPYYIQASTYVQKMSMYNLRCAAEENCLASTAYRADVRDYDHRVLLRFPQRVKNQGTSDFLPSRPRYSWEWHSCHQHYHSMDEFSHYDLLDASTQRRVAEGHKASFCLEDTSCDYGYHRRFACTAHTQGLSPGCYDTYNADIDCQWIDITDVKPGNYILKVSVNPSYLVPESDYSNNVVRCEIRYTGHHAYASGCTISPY
# method.notes: LOX enzyme activity assay (HRP-coupled fluorescent, cadaverine substrate);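 note: LOX isolated from porcine skin, nine-point dilution series starting at 100 µM, 20 min preincubation with enzyme, BAPN serving as positive control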
# Assay type: biochemical, pig
# condition.summary: high-throughput screen hit; read-out: mean IC50 (LOX, HTS hit)
property: pIC50
pIC50 field: float, defined as -log10 of concentration (mol/L).

Report value only: pIC50, LOX (Sus scrofa), NCc1ccc(S(=O)(=O)N2CCCCC2)s1
4.72

----------
# system.name: MAO-B (Homo sapiens, UniProt P27338)
# Sequence (P27338 1-520): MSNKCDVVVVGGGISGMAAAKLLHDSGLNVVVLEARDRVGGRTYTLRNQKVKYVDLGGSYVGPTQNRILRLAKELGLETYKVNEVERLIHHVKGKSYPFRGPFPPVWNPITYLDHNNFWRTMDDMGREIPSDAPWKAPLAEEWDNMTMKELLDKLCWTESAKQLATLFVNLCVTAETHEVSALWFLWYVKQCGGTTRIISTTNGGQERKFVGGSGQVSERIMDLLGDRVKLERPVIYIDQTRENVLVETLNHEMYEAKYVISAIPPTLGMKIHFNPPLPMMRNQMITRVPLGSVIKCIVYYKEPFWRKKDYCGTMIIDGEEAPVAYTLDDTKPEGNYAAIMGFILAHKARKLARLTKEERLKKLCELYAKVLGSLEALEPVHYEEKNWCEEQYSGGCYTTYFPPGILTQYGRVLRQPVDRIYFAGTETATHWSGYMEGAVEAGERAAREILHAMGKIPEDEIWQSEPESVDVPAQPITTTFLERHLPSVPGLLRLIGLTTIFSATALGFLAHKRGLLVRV
property: IC50

Provide only the value of recorded IC50 for Cc1ccc(-c2cc(S(=O)(=O)c3ccc(CN)s3)ccc2S(C)(=O)=O)cc1.Cl
> 100 µM
